From: patent US20210380703A1

Target: T1, Human ACVR2A (human, UniProt P27037 20-135, limits assumed); note: test concentration or dose not given here
T1 construct: also called activin receptor, type II A
T1 sequence (P27037 20-135 limits assumed): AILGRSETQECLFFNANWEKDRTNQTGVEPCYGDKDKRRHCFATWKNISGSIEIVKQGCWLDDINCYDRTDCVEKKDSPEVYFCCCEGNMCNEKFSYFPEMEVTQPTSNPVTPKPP
Assay: ELISA
Catalogue of binders with associated optical density
resultType: optical density

{"columns": ["binder", "assayValue"],
 "data": [
  ["366_G04 (antibody, V domains shown, VH/VL only) VH: EVQLLESGGGLVQPGGSLRLSCAASGFTFSSYSMNWVRQAPGKGLEWVSGINYNSGYTSYADSVKGRFTISRDNSKNTLYLQMNSLRAEDTAVYYCARSANWHDTALDYWGQGTLVTVSS VL: DIQMTQSPSSLSASVGDRVTITCRASQSIITYLNWYQQKPGKAPKLLIYAATSRASGVPSRFSGSGSGTDFTLTISSLQPEDFATYYCQQSDDTPLTFGGGTKVEIK", "1.85 OD"],
  ["374_G05 (antibody, V domains shown, VH/VL only) VH: EVQLLESGGGLVQPGGSLRLSCAASGFTFSSYSMNWVRQAPGKGLEWVSNINYNSGYKGYADSVKGRFTISRDNSKNTLYLQMNSLRAEDTAVYYCARGATWHDTHLDYWGQGTLVTVSS VL: DIQMTQSPSSLSASVGDRVTITCRASQSIISYLNWYQQKPGKAPKLLIYAATSRASGVPSRFSGSGSGTDFTLTISSLQPEDFATYYCQQSYDLPLTFGGGTKVEIK", "3.66 OD"],
  ["365_D02 (antibody, V domains shown, VH/VL only) VH: EVQLLESGGGLVQPGGSLRLSCAASGFTFSSYSMHWVRQAPGKGLEWVASINYNGGYTSYADSVKGRFTISRDNSKNTLYLQMNSLRAEDTAVYYCARGATWHDTHLDYWGQGTLVTVSS VL: DIQMTQSPSSLSASVGDRVTITCRASQSIVTYLNWYQQKPGKAPKLLIYAATSLASGVPSRFSGSGSGTDFTLTISSLQPEDFATYYCQQSYDNPLTFGGGTKVEIK", "2.54 OD"],
  ["365_F05 (antibody, V domains shown, VH/VL only) VH: EVQLLESGGGLVQPGGSLRLSCAASGFTFSSYGMNWVRQAPGKGLEWVASINYNGGYTSYADSVKGRFTISRDNSKNTLYLQMNSLRAEDTAVYYCARGATWHDTHLDYWGQGTLVTVSS VL: DIQMTQSPSSLSASVGDRVTITCRASQSIVTYVNWYQQKPGKAPKLLIYAATSRASGVPSRFSGSGSGTDFTLTISSLQPEDFATYYCQQSYETPLTFGGGTKVEIK", "2.14 OD"],
  ["371_E09 (antibody, V domains shown, VH/VL only) VH: EVQLLESGGGLVQPGGSLRLSCAASGFTFSDYSMNWVRQAPGKGLEWVSGINYNSGYTSYADSVKGRFTISRDNSKNTLYLQMNSLRAEDTAVYYCARGATWHDTHLDYWGQGTLVTVSS VL: DIQMTQSPSSLSASVGDRVTITCRASQSILTYLNWYQQKPGKAPKLLIYAATSRASGVPSRFSGSGSGTDFTLTISSLQPEDFATYYCQQSYNSPLTFGGGTKVEIK", "2.08 OD"],
  ["374_A05 (antibody, V domains shown, VH/VL only) VH: EVQLLESGGGLVQPGGSLRLSCAASGFTFSDYGMNWVRQAPGKGLEWVANINYNGGYKGYADSVKGRFTISRDNSKNTLYLQMNSLRAEDTAVYYCARGATWHDTHLDYWGQGTLVTVSS VL: DIQMTQSPSSLSASVGDRVTITCRASQSIVRYLNWYQQKPGKAPKLVIYAATSLASGVPSRFSGSGSGTDFTLTISSLQPEDFATYYCQQSYELPLTFGGGTKVEIK", "3.6 OD"],
  ["368_C11 (antibody, V domains shown, VH/VL only) VH: EVQLLESGGGLVQPGGSLRLSCAASGFTFSDYSMNWVRQAPGKGLEWVSSINYNSGYKSYADSVKGRFTISRDNSKNTLYLQMNSLRAEDTAVYYCARGATWHDTHLDYWGQGTLVTVSS VL: DIQMTQSPSSLSASVGDRVTITCRASQSIISYLNWYQQKPGKAPKLLIYAATSRASGVPSRFSGSGSGTDFTLTISSLQPEDFATYYCQQSYDNPLTFGGGTKVEIK", "2.03 OD"],
  ["371_E08 (antibody, V domains shown, VH/VL only) VH: EVQLLESGGGLVQPGGSLRLSCAASGFTFSSYSMNWVRQAPGKGLEWVSNINYNSGYKSYADSVKGRFTISRDNSKNTLYLQMNSLRAEDTAVYYCARGATWHDTHLDYWGQGTLVTVSS VL: DIQMTQSPSSLSASVGDRVTITCRASQSIVSYVNWYQQKPGKAPKLVIYAATSRHSGVPSRFSGSGSGTDFTLTISSLQPEDFATYYCQQSYDLPLTFGGGTKVEIK", "2.11 OD"],
  ["365_A08 (antibody, V domains shown, VH/VL only) VH: EVQLLESGGGLVQPGGSLRLSCAASGFTFSSYSMNWVRQAPGKGLEWVASINYNGGYKSYADSVKGRFTISRDNSKNTLYLQMNSLRAEDTAVYYCARGATWHDTHLDYWGQGTLVTVSS VL: DIQMTQSPSSLSASVGDRVTITCRASQSIITYLNWYQQKPGKAPKLVIYAATSRASGVPSRFSGSGSGTDFTLTISSLQPEDFATYYCQQSDNTPLTFGGGTKVEIK", "1.58 OD"],
  ["365_F01 (antibody, V domains shown, VH/VL only) VH: EVQLLESGGGLVQPGGSLRLSCAASGFTFDSYSMNWVRQAPGKGLEWVSGINYNSGYKGYADSVKGRFTISRDNSKNTLYLQMNSLRAEDTAVYYCARSANWHDTHLDYWGQGTLVTVSS VL: DIQMTQSPSSLSASVGDRVTITCRASQSIVSYLNWYQQKPGKAPKLVIYAATSLASGVPSRFSGSGSGTDFTLTISSLQPEDFATYYCQQSYELPLTFGGGTKVEIK", "2.51 OD"]
]}
